# recorded_conditions: 298.15 K; 101 kPa; Liquid
observation_type: viscosity (mPa·s)
Numbers only, in mPa·s.

Batch of 5 molecules: report viscosity for each.
1. CC(C)CCCC(C)CCCC(C)CCCCC(C)CCCC(C)CCCC(C)C (stereo not given)
2. CCCCCCCCCCCCCCCC
3. CCCCCC
4. CCCCCCCCCC
5. C1CCCCC1

1. 31.12
2. 3.039
3. 0.294
4. 0.859
5. 0.898

###

Can you tell me refractive index for the items I'm about to list?
# run_description: refractive index (Na D-line) (dimensionless)
# recorded_conditions: 298.15 K; 101.33 kPa; Liquid; Standard Abbe refractometry
One number for each entry.

CCCCCCCCCC :: 1.41
CCCCCC :: 1.3745

Batch of 3 molecules: report refractive index for each.
1. CC(C)CCCC(C)CCCC(C)CCCCC(C)CCCC(C)CCCC(C)C (stereo not given)
2. CCCCCCCCCCCCCCCC
3. C1CCCCC1

1.4474
1.434
1.4235

###

# recorded_conditions: 298.15 K; 101 kPa; Liquid
observation_type: mass density (kg/m3)
Give bare numbers, in kg/m3.

These solved cases illustrate the format of a correct answer.
CCCCCCCCCCCCCCCC :: 770.6
C1CCCCC1 :: 773.7
CCCCCCCCCC :: 726.2
CC(C)CCCC(C)CCCC(C)CCCCC(C)CCCC(C)CCCC(C)C (stereo not given) :: 805.4

Param item = CCCCCC ; retrieve measured mass density.
654.8
